Tested on: Sarcoma 180
Assay: Sarcoma 180 assay, single intraperitoneal dose (Example 7)
Format: in vivo, Swiss-Webster mice
Settings: Day 10, 10 mg/kg single ip
measurement type: Body weight (g)
Return type: number; implicit unit g.

Q. Could you share what Body weight was measured for O=c1c2ccccc2oc2ccccc12 [Compound of Example 3, Xanthone] , tested on Sarcoma 180?
A. 26.4

====

Test system: Sarcoma 180
Assay: Sarcoma 180 assay, single intraperitoneal dose (Example 7)
Format: in vivo, Swiss-Webster mice
Conditions: Day 7, 10 mg/kg single ip
measurement type: Body weight (g)
Give the value in g but do not write g after it.

Q. Return reported Body weight; argument: `O=c1c2ccccc2oc2ccccc12`
A. 26.1

====

Test system: Sarcoma 180
Assay: Sarcoma 180 assay, single intraperitoneal dose (Example 7)
Format: in vivo, Swiss-Webster mice
Settings: Day 10, 100 mg/kg single ip
measurement type: Body weight (g)
The response must be a number in g with no trailing unit.

Q. Look at this compound and give its reported Body weight. O=c1c2ccccc2oc2ccccc12 [Compound of Example 3, Xanthone]
A. 26.5

====

System: Sarcoma 180
Experiment: Sarcoma 180 assay, single intraperitoneal dose (Example 7)
Type: in vivo, Swiss-Webster mice
Conditions: Day 7, 100 mg/kg single ip
measurement type: Body weight (g)
State the answer as a number, implicitly in g.

Q. Quick check: Body weight of O=c1c2ccccc2oc2ccccc12 [Compound of Example 3, Xanthone] ?
A. 26.2

====

Test system: Sarcoma 180
Assay: Sarcoma 180 assay, single intraperitoneal dose (Example 7)
Type: in vivo, Swiss-Webster mice
Conditions: Day 1, 1 mg/kg single ip
Source text: [table] The tumor stock was a Sarcoma 180 which was started in the laboratory from an American Type Culture Collection. This stock culture has been passed at weekly intervals as an ascites in non-treated Swiss-Webster mice. The current studies were all carried out with Swiss-Webster mice obtained from Animal Technologics Ltd., Kent, Wash. To prepare the inoculum, the ascites fluid from a mouse with a 7-10 day ascites is aspirated using a sterile technique. […]
measurement type: Body weight (g)
Unit g implied. Number only.

Q. Which value of Body weight has been reported for O=c1c2ccccc2oc2ccccc12 [Compound of Example 3, Xanthone] in the records?
A. 24.2

====

Tested on: Sarcoma 180
Experiment: Sarcoma 180 assay, single intraperitoneal dose (Example 7)
Format: in vivo, Swiss-Webster mice
Settings: Day 1, 100 mg/kg single ip
measurement type: Body weight (g)
Answer with a number only, understood to be in g.

Q. Requested read-out: Body weight. Entry: `O=c1c2ccccc2oc2ccccc12`
A. 23.4

====

Tested on: Sarcoma 180
Experiment: Sarcoma 180 assay, single intraperitoneal dose (Example 7)
Type: in vivo, Swiss-Webster mice
Conditions: Day 10, 1 mg/kg single ip
measurement type: Body weight
Enter the number, and then the unit.

Q. For the compound shown here, `O=c1c2ccccc2oc2ccccc12` , give the reported Body weight.
A. 26.2 g
